- Test system: MS2 coat protein
- test-name: apparent KD of MS2 coat protein; designed switch direction (-1 OFF switch, 1 ON switch): -1; higher = weaker reporter binding
- measurement-context: Eterna round: R95; input ligand: microRNA oligo, concentration not stated
endpoint-label: apparent KD of MS2 coat protein

Under MS2 coat protein, report apparent KD of MS2 coat protein for AAUAACAGAGGAUAUACUAUUUUAUGUGUUUGUUGUUUUGAACAUGAGGAUCACCCAUGUAGAAGGCUGAGUAA [JMF 40] (puzzle: Exclusion 2) 24.2 nM

More entries:
Under MS2 coat protein, report apparent KD of MS2 coat protein for CCGGAAAAGGAGGAUAUAGGAGUCGAUAGACACCUAGAAGGCCUGACAUGAGGAUCACCCAUGUGUCCUACCGG [Fiskers Ex 6 - 92] (puzzle: Exclusion 6) 17.9 nM

Under MS2 coat protein, report apparent KD of MS2 coat protein for GUCGAGUGAGGAUAUGGUGAGUAGUGCCUGAGCGCUGCUCACCAGAAGGCACAUGAGGAUCACCCAUGUAUAGC [JL-ex4-2.05 denovo] (puzzle: Exclusion 4) 15.5 nM

Under MS2 coat protein, report apparent KD of MS2 coat protein for UCAAGUAUGUAGGAUAUCGAUGUCUUCGGACAUCGAGAAGGACGUACAUGAGGAUCACCCAUGUAACUUGCAUG [Exclusion 6 - B - 10:a] (puzzle: Exclusion 6) 55.2 nM
